Where do the numbers come from? From patent US20160362487A1.

Assay target: T1, biotinylated hIL-33 protein (R&D systems, Cat #3625-IL/CF) (human, UniProt O95760 112-270, biotinylated (sites not given))
T1 construct: Same commercial protein as m21, biotin-labelled; also called biotin-hIL-33
T1 sequence (looked up): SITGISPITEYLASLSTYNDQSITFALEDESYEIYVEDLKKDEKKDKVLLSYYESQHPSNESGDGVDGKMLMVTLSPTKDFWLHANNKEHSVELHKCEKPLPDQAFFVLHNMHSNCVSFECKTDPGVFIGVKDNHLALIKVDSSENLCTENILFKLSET
Assay details: competition ELISA, 30 pM biotin-hIL-33 on coated hST2-hFc

Binder	IC50 [nM]
H4H9633P (antibody, human IgG4, V domains shown, Human IgG4 Fc (H4H)) VH: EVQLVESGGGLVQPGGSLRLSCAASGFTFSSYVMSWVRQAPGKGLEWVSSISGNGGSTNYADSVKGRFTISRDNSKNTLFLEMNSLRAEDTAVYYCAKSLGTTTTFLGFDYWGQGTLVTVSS VL: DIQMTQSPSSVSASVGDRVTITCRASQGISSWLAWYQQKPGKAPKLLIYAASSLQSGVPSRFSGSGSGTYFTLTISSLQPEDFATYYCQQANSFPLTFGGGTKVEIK	0.44
H4H9676P (antibody, human IgG4, V domains shown, Human IgG4 Fc (H4H)) VH: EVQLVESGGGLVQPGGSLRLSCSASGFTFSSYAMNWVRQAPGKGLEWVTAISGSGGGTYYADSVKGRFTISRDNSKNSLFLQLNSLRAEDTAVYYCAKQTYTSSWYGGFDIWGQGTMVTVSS VL: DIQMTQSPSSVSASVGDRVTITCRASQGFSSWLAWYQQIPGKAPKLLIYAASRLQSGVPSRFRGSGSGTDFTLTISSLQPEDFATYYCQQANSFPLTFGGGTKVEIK	0.46
H4H9659P (antibody, human IgG4, V domains shown, Human IgG4 Fc (H4H)) VH: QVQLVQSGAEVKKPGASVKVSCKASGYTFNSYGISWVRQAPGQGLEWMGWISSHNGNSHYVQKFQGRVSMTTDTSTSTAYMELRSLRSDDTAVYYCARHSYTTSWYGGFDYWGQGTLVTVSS VL: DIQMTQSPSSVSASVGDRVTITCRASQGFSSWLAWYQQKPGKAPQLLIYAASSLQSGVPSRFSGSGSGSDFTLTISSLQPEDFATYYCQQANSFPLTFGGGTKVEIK	0.4
H1M9559N (antibody, mouse IgG1, V domains shown, Human variable domains, mouse IgG1 Fc (H1M)) VH: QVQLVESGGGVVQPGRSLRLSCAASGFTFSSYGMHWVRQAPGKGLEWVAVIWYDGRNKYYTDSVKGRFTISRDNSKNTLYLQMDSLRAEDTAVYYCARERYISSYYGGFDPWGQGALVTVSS VL: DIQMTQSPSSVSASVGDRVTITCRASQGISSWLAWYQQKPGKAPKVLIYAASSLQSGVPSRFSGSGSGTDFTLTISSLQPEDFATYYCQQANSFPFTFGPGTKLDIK	0.14
H4H9662P (antibody, V domains shown, Human IgG4 Fc (H4H)) VH: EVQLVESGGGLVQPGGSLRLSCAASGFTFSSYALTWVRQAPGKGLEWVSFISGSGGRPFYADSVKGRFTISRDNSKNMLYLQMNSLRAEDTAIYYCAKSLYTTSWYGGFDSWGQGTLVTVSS VL: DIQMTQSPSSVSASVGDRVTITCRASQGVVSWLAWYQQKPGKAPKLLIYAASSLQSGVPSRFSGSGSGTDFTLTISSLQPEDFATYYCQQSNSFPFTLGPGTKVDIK	1
H1M9566N (antibody, mouse IgG1, V domains shown, Human variable domains, mouse IgG1 Fc (H1M)) VH: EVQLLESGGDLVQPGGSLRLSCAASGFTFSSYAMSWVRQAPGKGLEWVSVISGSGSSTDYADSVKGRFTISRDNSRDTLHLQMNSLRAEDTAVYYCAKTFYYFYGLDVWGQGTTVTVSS VL: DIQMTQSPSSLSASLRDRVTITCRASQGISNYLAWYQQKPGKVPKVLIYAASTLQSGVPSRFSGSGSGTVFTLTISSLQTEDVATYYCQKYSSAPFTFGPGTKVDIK	0.32
H4H9670P (antibody, V domains shown, Human IgG4 Fc (H4H)) VH: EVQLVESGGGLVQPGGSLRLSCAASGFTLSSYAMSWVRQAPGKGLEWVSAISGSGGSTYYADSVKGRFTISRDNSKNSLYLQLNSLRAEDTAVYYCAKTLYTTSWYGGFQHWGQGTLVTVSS VL: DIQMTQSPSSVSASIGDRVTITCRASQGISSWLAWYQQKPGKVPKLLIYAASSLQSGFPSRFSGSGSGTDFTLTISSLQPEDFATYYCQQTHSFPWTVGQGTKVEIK	0.48
